Catalogue of Activity readings, one per entry.
# TARGET_DESC: Receptor-interacting serine/threonine-protein kinase 3 (Homo sapiens)
# Sequence (Q9Y572 whole entry, looked up): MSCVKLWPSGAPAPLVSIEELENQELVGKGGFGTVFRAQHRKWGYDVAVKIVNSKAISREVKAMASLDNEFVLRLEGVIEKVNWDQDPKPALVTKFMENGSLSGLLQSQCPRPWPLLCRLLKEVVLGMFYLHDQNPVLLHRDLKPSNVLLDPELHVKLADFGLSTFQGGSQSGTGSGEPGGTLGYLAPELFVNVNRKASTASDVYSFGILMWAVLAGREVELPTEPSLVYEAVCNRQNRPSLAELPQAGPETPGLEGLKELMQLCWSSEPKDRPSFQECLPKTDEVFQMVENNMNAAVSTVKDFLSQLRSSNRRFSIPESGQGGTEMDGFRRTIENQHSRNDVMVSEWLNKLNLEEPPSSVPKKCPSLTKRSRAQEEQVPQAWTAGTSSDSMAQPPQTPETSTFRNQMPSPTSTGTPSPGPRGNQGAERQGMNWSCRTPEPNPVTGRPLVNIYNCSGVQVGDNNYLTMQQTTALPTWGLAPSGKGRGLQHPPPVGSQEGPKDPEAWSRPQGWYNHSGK
# ASSAY_DETAILS: Inhibition of recombinant full length human RIPK3 expressed in baculovirus infected Sf9 insect cells assessed as residual activity at 10 uM using MBP as substrate in presence of [gamma-33P]ATP
Write down the numeric answer in % and omit the unit.

Before answering, review these 8 worked examples.
# STRUCTURE, MEASUREMENT_UNITS, Activity
measured = [
    ("Cn1cc(C2=C(c3cn(CCCCCC(=O)O)c4ccccc34)C(=O)N(O)C2=O)c2ccccc21", "%", 106),
    ("N#CCCCCCn1cc(C2=C(c3cn(CCCCCC#N)c4ccccc34)C(=O)NC2=O)c2ccccc21", "%", 100),
    ("Cn1cc(C2=C(c3cn(C)c4ncccc34)C(=O)NC2=O)c2ccccc21", "%", 79),
    ("O=C1C(c2c[nH]c3ccccc23)=C(c2c[nH]c3ncccc23)C(=O)N1O", "%", 102),
    ("Cn1cc(C2=C(c3cn(CCCCCC#N)c4ccccc34)C(=O)N(O)C2=O)c2ccccc21", "%", 105),
    ("CCn1cc(C2=C(c3cn(C(C)C)c4ccccc34)C(=O)N(O)C2=O)c2ccccc21", "%", 107),
    ("O=C1C2=C(C(=O)N1O)c1cn(c3ccccc13)CCCCCCn1cc2c2ccccc21", "%", 108),
    ("Cn1cc(C2=C(c3cn(C)c4ccccc34)C(=O)N(O)C2=O)c2ccccc21", "%", 100),
]

In the following, a different compound is considered.
Measured Activity of CC(C)n1cc(C2=C(c3c[nH]c4ccccc34)C(=O)N(O)C2=O)c2ccccc21 : 97

----------
# TARGET_DESC: Serine/threonine-protein kinase haspin (Homo sapiens)
# ASSAY_DETAILS: Inhibition of recombinant human haspin kinase domain expressed in bacteria assessed as residual activity at 10 uM using histone H3 (1 to 21 residues) peptide as substrate in presence of [gamma-33P]ATP
REPORTED_METRIC: Activity (%)
Write down the numeric answer in % and omit the unit.

# STRUCTURE, Activity / %
measured = [
    ("CC(C)n1cc(C2=C(c3c[nH]c4ccccc34)C(=O)N(O)C2=O)c2ccccc21", 123),
]

Measured Activity (Serine/threonine-protein kinase haspin (Homo sapiens)), entry Cn1cc(C2=C(c3cn(CCCCCC#N)c4ccccc34)C(=O)N(O)C2=O)c2ccccc21 : 114

Measured Activity (Serine/threonine-protein kinase haspin (Homo sapiens)), entry N#CCCCCCn1cc(C2=C(c3cn(CCCCCC#N)c4ccccc34)C(=O)N(O)C2=O)c2ccccc21 : 99

----------
# Species: Sus scrofa domesticus
# ASSAY_DETAILS: Inhibition of domestic porcine brain full length […] assessed as residual activity at 10 uM using RRKHAAIGSpAYSITA as substrate in presence of [gamma-33P]ATP
REPORTED_METRIC: Activity (%)
Write down the numeric answer in % and omit the unit.

# STRUCTURE, Activity, %
records = [
    ("Cn1cc(C2=C(c3cn(CCCCCC(=O)O)c4ccccc34)C(=O)N(O)C2=O)c2ccccc21", 80),
]

Measured Activity of O=C(O)CCCCCn1cc(C2=C(c3c[nH]c4ccccc34)C(=O)N(O)C2=O)c2ccccc21 : 83

Measured Activity of Cn1cc(C2=C(c3cn(C)c4ncccc34)C(=O)NC2=O)c2ccccc21 : 76

Measured Activity of O=C1C(c2c[nH]c3ccccc23)=C(c2c[nH]c3ncccc23)C(=O)N1O : 41
